molecular target: UniProtKB P51681
property-label: IC50

Some compounds with known IC50 results, for comparison:
compound: Cc1nnc(C(C)C)n1C1CC2CCC(C1)N2CC[C@](C)(CN(C)S(=O)(=O)c1ccccc1)c1ccccc1 (stereo partly shown)
IC50: < 10 nM
//
compound: CN(CC(C)(CCN1CCC2C(CCN2C(=O)OC(C)(C)C)C1)c1ccccc1)S(=O)(=O)c1ccc(C(=O)O)cc1 (stereo not shown)
IC50: < 100 nM
//
compound: CN(C[C@@](C)(CCN1CC[C@H]2OC(C)(C)O[C@H]2C1)c1ccccc1)S(=O)(=O)c1ccccc1
IC50: < 1000 nM

Next:
Observed IC50 on UniProtKB P51681, entry CN(C[C@@](C)(CCN1CC[C@H]2CNC[C@H]2C1)c1ccccc1)S(=O)(=O)c1ccccc1 , equals < 1000 nM

###

Assay read-out pIC50; system under study: CCR5 chemokine receptor (Homo sapiens).
Sequence (P51681 whole entry): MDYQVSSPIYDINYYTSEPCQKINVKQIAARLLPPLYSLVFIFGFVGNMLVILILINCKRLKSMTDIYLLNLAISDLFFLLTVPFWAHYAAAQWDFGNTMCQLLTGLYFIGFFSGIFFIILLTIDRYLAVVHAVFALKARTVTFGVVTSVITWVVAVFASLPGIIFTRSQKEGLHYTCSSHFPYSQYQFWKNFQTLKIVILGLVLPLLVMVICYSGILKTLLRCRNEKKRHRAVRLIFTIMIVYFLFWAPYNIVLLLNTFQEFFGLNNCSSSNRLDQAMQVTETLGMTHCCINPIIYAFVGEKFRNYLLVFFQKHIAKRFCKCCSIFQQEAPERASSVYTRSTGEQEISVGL
pIC50: −log10 of the molar value.

Some compounds with known pIC50 results, for comparison:
compound: CO[C@](CCN1CCC2C(CCN2C(=O)OC(C)(C)C)C1)(CN(C)S(=O)(=O)c1ccccc1)c1ccccc1 (stereo partly drawn)
subject-of-test: CCR5 chemokine receptor (Homo sapiens)
pIC50: > 6.00
--
compound: CN1N=C2CCN(CC[C@](C)(CN(C)S(=O)(=O)c3ccccc3)c3ccccc3)CC2(C)C1=O (stereo partly drawn)
subject-of-test: CCR5 chemokine receptor (Homo sapiens)
pIC50: > 6.00
--
compound: COc1cccc(C(C)(CCN2CCC3C(CCN3C(=O)OC(C)(C)C)C2)CN(C)S(=O)(=O)c2ccccc2)c1 (stereo not drawn)
subject-of-test: CCR5 chemokine receptor (Homo sapiens)
pIC50: > 6.00
--
compound: CN(C[C@@](C)(CCN1CC[C@@H]2[C@@H](CCN2C(=O)OC(C)(C)C)C1)c1ccccc1)S(=O)(=O)c1ccccc1 [Example 1]
subject-of-test: CCR5 chemokine receptor (Homo sapiens)
pIC50: > 9.00
--
compound: C[C@H](NC(=O)N1C[C@H]2CN(CC[C@](C)(CN(C)S(=O)(=O)c3ccccc3)c3ccccc3)CC[C@H]2C1)c1ccccc1
subject-of-test: CCR5 chemokine receptor (Homo sapiens)
pIC50: > 6.00
--
compound: CN(CC(C)(CCN1CCC2C(CCN2C(=O)OC2CO[C@H]3OCCC23)C1)c1ccccc1)S(=O)(=O)c1ccccc1 (stereo partly drawn)
subject-of-test: CCR5 chemokine receptor (Homo sapiens)
pIC50: > 7.00

Observed pIC50 on CCR5 chemokine receptor (Homo sapiens), entry Cc1nnc(C2CO[C@H]3OCCC23)n1C1CC2CCC(C1)N2CC[C@H](NS(=O)(=O)c1ccc2c(c1)OCO2)c1ccccc1 (stereo partly drawn) , equals > 6.00

Observed pIC50 on CCR5 chemokine receptor (Homo sapiens), entry CN(C[C@@](C)(CCN1C2CCC1CC(NC(=O)OCc1ccccc1)C2)c1ccccc1)S(=O)(=O)c1ccccc1 (stereo partly drawn) , equals > 7.00

Observed pIC50 on CCR5 chemokine receptor (Homo sapiens), entry CN(C[C@@](C)(CCN1CCc2[nH][nH]c(=O)c2C1)c1ccccc1)S(=O)(=O)c1ccccc1 , equals > 6.00

Observed pIC50 on CCR5 chemokine receptor (Homo sapiens), entry CC(=O)OC(OC(C)=O)c1ccc(S(=O)(=O)N(C)CC(C)(CCN2CCC3C(CCN3C(=O)OC(C)(C)C)C2)c2ccccc2)cc1 (stereo not drawn) , equals > 7.00

Observed pIC50 on CCR5 chemokine receptor (Homo sapiens), entry C[C@H](c1ccccc1)N(C)C(=O)N1C[C@H]2CN(CC[C@](C)(CN(C)S(=O)(=O)c3ccccc3)c3ccccc3)CC[C@H]2C1 , equals > 7.00

Observed pIC50 on CCR5 chemokine receptor (Homo sapiens), entry Cc1nc(COC(=O)N2C[C@H]3CN(CC[C@](C)(CN(C)S(=O)(=O)c4ccccc4)c4ccccc4)CC[C@H]3C2)c(C)o1 , equals > 6.00

Observed pIC50 on CCR5 chemokine receptor (Homo sapiens), entry C[C@@H](NC(=O)N1CC2CCN(CC[C@](C)(CN(C)S(=O)(=O)c3ccccc3)c3ccccc3)C[C@@H]2C1)c1ccccc1 (stereo partly drawn) , equals > 7.00

Observed pIC50 on CCR5 chemokine receptor (Homo sapiens), entry CN(CC(C)(CCN1CCC2C(CCN2C(=O)OC(C)(C)C)C1)c1ccccc1)S(=O)(=O)c1ccc(CN)cc1 (stereo not drawn) , equals > 6.00

Observed pIC50 on CCR5 chemokine receptor (Homo sapiens), entry CN(C[C@@](C)(CCN1CC[C@@H]2[C@@H](CCN2C(=O)OC(C)(C)C)C1)c1ccccc1)S(=O)(=O)c1ccc(CNC(=O)O[C@H]2CCOC2)cc1 , equals > 9.00
